system: THRa homodimer (NR concentration 90 nM); test: PBM binding z-score (relative to random genomic background probes); higher = stronger binding; sequences stand for … in GC…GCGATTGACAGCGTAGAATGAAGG
Given measured PBM binding z-score, output Met if it is greater than or equal to 0.2 and Not met if not.

GCATATAGGTAATACAAGGTTAAAGTCCGATTGT	Met
GCTTGTAGATCTAGGTTAAGAAAGACTAAGCTAA	Not met
ATATGGAGGTTACATCCGGGTCATTCAGGCTATG	Met
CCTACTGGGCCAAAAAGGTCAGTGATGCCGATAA	Not met
TCTTGTACATCAATAGAGGTTAAGAAAGTGCGCT	Not met
CGTCCAAAGTCAATGCTAGGTCAGTGAAAGCATT	Met
ACCAGTTGGTCAGCTGAGGTCACACACAATTCGG	Met
GCATATAGGTAATACAAAGTGAAAGTCCGATTGT	Not met
ATCTGTAGGTTAGCTGGGGTCATTCAGACTAGGC	Met
CCGAGTACGTTATGGGGCATTCAGGCAACGGTGA	Not met
GCAGACAGCTGAAACGCAGGTAACTCAGGGTGGC	Not met
ATTAGTTGGTCAGCTGAGGTCACACACAATTCGG	Met
CCGACTGGGGCACGGTTACCATAACGCACAGCCA	Not met
GCTTGTAGATCAAGGTCAAGAAAGACTAAGCTAA	Met
TCTTGTTGATCAATAGAGGTTAAGAAAGTGCGCT	Not met
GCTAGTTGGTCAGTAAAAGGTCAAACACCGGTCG	Met
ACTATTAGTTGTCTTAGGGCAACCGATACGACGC	Met
AGAACGAGGGCACGCTGAATTGATAGCAGAGTAG	Not met
AATACAGGGTCATCGTAGGCCCGAGTACGCACAG	Met
CTTCCAAGGTCATAGGAGGTCAGTGAAGACAGAT	Met
TCTGCTAGGTCAACGATCGTCAGCTAATCTGCTA	Met
TGAATGAGTTTAAAGATCAGGGAACGTGGCGTCG	Not met
ACAGAGAGGTGAGTGAAGGTAACTCAGCTGGACG	Met
CTAACTAGGTCAGAACAGGACAGTGAAGGATGAT	Met
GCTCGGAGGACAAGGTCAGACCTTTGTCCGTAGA	Met

* * *

system: FXR:RXRa (NR concentration 270 nM, RXRa partner concentration 90 nM); test: PBM binding z-score (relative to random genomic background probes); higher = stronger binding; sequences stand for … in GC…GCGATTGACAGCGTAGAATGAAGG
Given measured PBM binding z-score, output fulfilled if it is greater than or equal to 3 and not fulfilled if not.

ATATGTAGGTTACATCCGGGTCATACAGGCTATG	not fulfilled
GCTAGATGGTCAGTAAAAGGTCACACACCGGTCG	fulfilled
TTACCAAGGTGAAAGGTCCTTGATGCACGCCTTG	not fulfilled
ACTATTACTTGACTTAGGGCAACCGATACGACGC	not fulfilled
AGTCAAAGTTCAGGACGAGGTATCGTAAAGCACG	fulfilled
CAAACTAGGTCACAGAGGTAAAAGTCCGTGCGTA	fulfilled
TAGCCTAGGTCATCCAGGGGCCAGTATAGAAAGC	fulfilled
CCTTACGGGTCACTCCAGGTTATTGCATCGGAGT	fulfilled
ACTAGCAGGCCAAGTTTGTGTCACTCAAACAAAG	not fulfilled
CCTTACGGCTCACTCCAGGTTATAGCATCGGAGT	not fulfilled
AGAATGAGGTTAAGATCAGCGAAACAGAATACAT	not fulfilled
CGAACTGGGTCAAGGACAGTGAATCTCCGCACGC	not fulfilled

* * *

Entries and their PBM binding z-score values follow.
system: THRa homodimer (NR concentration 90 nM); test: PBM binding z-score (relative to random genomic background probes); higher = stronger binding; sequences stand for … in GC…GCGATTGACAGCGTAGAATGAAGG
OUTCOME_MEASURE: PBM binding z-score

AGAACGGGGGCACGCTGAGTTGATAGCAGAGTAG	0.833
ACTGTTAGTTGAGACGAGGGCAACCGATAGGTTG	0.349
GCTGCTAGGTAAACTGATGGTCAGCTAAAGCTCG	-0.754
TCATATACGTAAACAGGTGAAAGTCCGTAAGTTA	0.342
ATACCAAGGTGATCGTGAGGACGTTGATACTAAC	1.97
CAAACTAGGTCAAAGGTCAAATTCGAGCCAACCA	1.67
TCATATAGGTAATACAGGTGAATGTCGGCATCTA	0.573
ATCTCTAGGTAACCAAGATCAGTGAATGCCGAAC	0.469
AGAACGAGGGCAATGAGATGATAGCACGGGTGGC	0.199
AGCATGAGGTTATTAAGATCAGGGAATTGCGGTC	0.867
CCTATTAGTTGACCATAAGGGCAAGCGAAGCTCG	1.08
TCATATAGGTAATACAGGTCAAAGTCGGCATCTA	1.24

* * *

Entries and their PBM binding z-score values follow.
test system: PPARg:RXRa 90nM:30nM, anti-RXR (NR concentration 90 nM, RXRa partner concentration 30 nM); test: PBM binding z-score (relative to random genomic background probes); higher = stronger binding; sequences stand for … in GC…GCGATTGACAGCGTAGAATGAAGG
OUTCOME_MEASURE: PBM binding z-score

ATCGCTAGGTAAAGTTCAGTGAAAGATCGATAGA	2.75
GGAACGAGGGGATTCGAGTTGATAGCATGGCGAT	-0.523
CTCGAAAGGTCGTGCTCAGCTGAGTATACCAAAC	2.38
CAAACTAGGTCACAGAGGTCAAAGTGCGTGCGTA	8.45
ACTATTAGTTGATTTAGGGCAACCGATACGACGC	0.717
TCCAGTAGGTTACCAATGGGGCATTCAGCTTTCT	2.39
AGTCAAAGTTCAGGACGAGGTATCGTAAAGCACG	3.93
AGAATTAGGTTAAGATCAGGGAAACAGAATACAT	2.24
CCTCGGAGGACACAAGGTCAGAGCTGTCCGCTTT	0.468
CAAACTCGGTCACCGGAAGGTCAAAGTCCGCATG	3.26
CCTCGGAGGACAACAGGGGGTCAGAGCTGCCAGA	1.13
GCAGACAGGTGGAACGCAGGTAACTCAGGGTGGC	-1.06

* * *

Entries and their PBM binding z-score values follow.
system: THRa homodimer (NR concentration 90 nM); assay: PBM binding z-score (relative to random genomic background probes); higher = stronger binding; sequences stand for … in GC…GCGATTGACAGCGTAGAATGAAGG
OUTCOME_MEASURE: PBM binding z-score

CCTATTAGTTGACCATAAGTGCAACCGAAGCTCG	1.18
CCTGCTAGGTAAATGGTCAGCTAAAGCAGCTCGC	-0.416
ATACCAAGGTGATCGTGAGGTAGTTGATACTAAC	0.542
GCGACTGGGGCATCAGCAGGTCACCATAACTTAA	1.44
TAGCCTAGGTCATGTGGGCCAGTATAGTGTCGGC	1.48
CGTCAAAGTTCAAGGGAACGTAACAGAAAGCAGC	-0.254
ATCGAAAGGTCGACGAGGTGAATATACACCGTTT	1.54
ACTTTTAGTTGACTTAGGGCAACCGATACGACGC	0.763
ACAGACAGGTGATGAAGGTAAGTCAGGCTATCAT	-0.25
CCTTACGGGTCACTCCAAGTTATAGCATCGGAGT	0.165
CCTCGGAGGACAGAAGGACAGAGCTGTCCGCTTT	-0.622
CGTCCAAGGTCAGCAGATCAGTGAAAGCGACGTG	2.11

* * *

tested on: PXR:RXRa (NR concentration 270 nM, RXRa partner concentration 90 nM); assay: PBM binding z-score (relative to random genomic background probes); higher = stronger binding; sequences stand for … in GC…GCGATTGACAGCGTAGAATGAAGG
OUTCOME_MEASURE: PBM binding z-score

CCTTACGGGTGACGAGGTTATAGCACGACGAGCG	0.931
CAAACTAGGTCAAAGGTCACAGTCGAGCCAACCA	6.88
TAGCCTAGGTCATGCGTGCCAGTATAGTGTCGGC	1.51
CGTCCAAGGTCAGAGAGGTCAGCGAATGCCGAGT	6.27
CCGACTGGGGCAAAGGTTACCCTACTCAGTACGA	1.9
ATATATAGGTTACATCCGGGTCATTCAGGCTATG	4.12
GCCGACAGGTGAAACGCAGGTAACTCAGGGTGGC	-0.343
TCATATAGGTAAAAGTTGAAAGTCGGTGTGGTAA	0.929
ATCGAAAGGTCGAGGTGAGTATCGAGAAAGGGAA	2.44
GCTCGAAGGACAAGGTCAGAGCTTTGTCCGTAGA	1.59
AGAATGAGGTTAAGATCAGGGAAACAGAATACAT	1.38
CCAGACAGGTGAGAAGGTAACTCGGCCTCGATTA	-0.382

The origin of these recorded values is the supplement of paper PMC6555819.
